Could you please report measured LRRK2 pIC50 for the items listed next?
# study.target: GST tagged truncated human mutant G2019S LRRK2 (Homo sapiens (Human), UniProt Q5S007, G2019S)
# Sequence (Q5S007 970-2527 G2019S): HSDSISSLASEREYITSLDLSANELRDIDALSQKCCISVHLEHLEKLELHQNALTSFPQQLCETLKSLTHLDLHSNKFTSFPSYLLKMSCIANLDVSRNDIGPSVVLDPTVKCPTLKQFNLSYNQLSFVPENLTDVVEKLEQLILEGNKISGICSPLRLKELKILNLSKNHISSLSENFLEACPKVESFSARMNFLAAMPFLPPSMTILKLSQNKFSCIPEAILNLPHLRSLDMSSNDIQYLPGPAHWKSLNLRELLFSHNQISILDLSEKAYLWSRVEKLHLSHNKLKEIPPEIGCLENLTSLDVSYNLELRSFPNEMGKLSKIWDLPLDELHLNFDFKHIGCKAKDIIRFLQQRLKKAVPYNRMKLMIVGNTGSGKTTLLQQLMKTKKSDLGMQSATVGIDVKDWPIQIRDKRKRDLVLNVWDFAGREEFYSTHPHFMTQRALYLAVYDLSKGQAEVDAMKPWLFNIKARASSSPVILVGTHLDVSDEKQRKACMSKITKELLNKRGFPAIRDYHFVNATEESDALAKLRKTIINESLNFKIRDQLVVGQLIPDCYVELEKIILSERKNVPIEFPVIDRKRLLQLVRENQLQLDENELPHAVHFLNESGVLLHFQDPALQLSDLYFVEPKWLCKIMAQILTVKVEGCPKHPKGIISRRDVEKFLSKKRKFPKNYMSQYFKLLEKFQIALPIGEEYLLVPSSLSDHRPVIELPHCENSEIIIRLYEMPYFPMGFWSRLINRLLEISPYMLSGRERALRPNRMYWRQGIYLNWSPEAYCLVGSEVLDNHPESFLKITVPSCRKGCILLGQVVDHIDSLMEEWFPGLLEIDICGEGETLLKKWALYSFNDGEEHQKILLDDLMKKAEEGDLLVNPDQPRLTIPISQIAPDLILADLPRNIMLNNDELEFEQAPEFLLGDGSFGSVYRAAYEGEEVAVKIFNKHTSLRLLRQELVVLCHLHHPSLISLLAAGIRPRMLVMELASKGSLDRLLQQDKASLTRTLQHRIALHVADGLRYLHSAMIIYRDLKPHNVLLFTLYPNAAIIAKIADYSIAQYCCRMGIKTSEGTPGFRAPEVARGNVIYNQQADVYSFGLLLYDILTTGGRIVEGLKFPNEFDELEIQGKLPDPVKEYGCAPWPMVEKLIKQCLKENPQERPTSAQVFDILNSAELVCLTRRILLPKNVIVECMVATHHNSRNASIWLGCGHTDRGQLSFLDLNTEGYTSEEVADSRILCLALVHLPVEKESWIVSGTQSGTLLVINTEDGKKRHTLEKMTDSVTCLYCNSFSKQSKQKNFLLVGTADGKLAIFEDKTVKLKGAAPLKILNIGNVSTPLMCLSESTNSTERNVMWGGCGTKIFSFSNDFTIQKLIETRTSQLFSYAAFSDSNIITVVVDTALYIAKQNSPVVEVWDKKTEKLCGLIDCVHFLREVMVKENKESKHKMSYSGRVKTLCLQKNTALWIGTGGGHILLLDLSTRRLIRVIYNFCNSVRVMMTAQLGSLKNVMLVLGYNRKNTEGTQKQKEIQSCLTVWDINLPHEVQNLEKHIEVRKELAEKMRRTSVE
# procedure.details: LRRK2 Km ATP LanthaScreen Assay
# Type: biochemical
# measurement.conditions: G2019S LRRK2, 134 μM ATP (Km ATP), mean values
Lab note: write the figure by itself, no unit.

// N#Cc1cc2cnc(Nc3cnn(C4CC4(F)F)c3Cl)nc2cc1[C@H]1CCN(C2COC2)C[C@@H]1F (single isomer, unassigned) [Ex-6.7] : LRRK2 pIC50 value = 9.01

Input CC(n1ncc(Nc2ncc3cc(Cl)c([C@@H]4CCN(C5COC5)C[C@H]4F)cc3n2)c1Cl)C(C)(C)O (single isomer, unassigned) [Ex-4.69] . Output LRRK2 pIC50: 9.13

The compound listed as Cc1nsc(Nc2ncc3cc(Cl)c([C@@H]4CCN(C5CCOC5)C[C@H]4F)cc3n2)c1Cl (single isomer, unassigned) [Ex-8.21] has a reported LRRK2 pIC50 of 8.44

The compound "Cc1c(Nc2ncc3cc(Cl)c(C4CCN(CC5(O)CCC5)CC4)cc3n2)cnn1C1CC1" showed LRRK2 pIC50 equal to 8.57

FC(F)Cn1ncc(Nc2ncc3cc(Cl)c([C@H]4CCN(C5COC5)C[C@@H]4F)cc3n2)c1Cl (single isomer, unassigned) yielded LRRK2 pIC50 of 9.11

# LRRK2 pIC50 (compound: Cc1cc(Nc2ncc3cc(Cl)c(C4CCN(C5COCC5O)CC4F)cc3n2)n(C)n1 (single isomer, unassigned) [Ex-4.235] ) is 8.84

// sample O[C@@H]1COC[C@@H]1N1CCC(c2cc3nc(Nc4cnn(C5CC5)c4Cl)ncc3cc2Cl)CC1 (single isomer, unassigned) , its LRRK2 pIC50 was 8.51

Record CC(n1ncc(Nc2ncc3cc(Cl)c([C@@H]4CCN(C5COC5)C[C@H]4F)cc3n2)c1Cl)C(C)(C)O (single isomer, unassigned) [Ex-4.65] . Reported LRRK2 pIC50: 8.91

Lookup result for "N#CCCN1CCC(c2cc3nc(Nc4cnn(C5CC5)c4Cl)ncc3cc2Cl)CC1" ; measured LRRK2 pIC50: 8.17

Sample Cn1nc(C2CC2)cc1Nc1ncc2cc(Cl)c(C3CCN([C@@H]4COC[C@@H]4O)CC3)cc2n1 (single isomer, unassigned) ; LRRK2 pIC50 observed: 9.00

LRRK2 pIC50 reported for this compound Cc1nsc(Nc2ncc3cc(Cl)c([C@H]4CCN(C5CCOC5)C[C@@H]4F)cc3n2)c1Cl (single isomer, unassigned) [Ex-8.23] : 8.12

* * *

# study.target: GST tagged truncated human mutant G2019S LRRK2 (Homo sapiens (Human), UniProt Q5S007, G2019S)
# procedure.details: LRRK2 Km ATP LanthaScreen Assay
# Format: biochemical
# measurement.conditions: G2019S LRRK2, 134 μM ATP (Km ATP), mean values
property.measured: LRRK2 pIC50
Answer with the value's number alone.

Lab book: LRRK2 pIC50 of Cc1cc2cnc(Nc3cnn(C4CC4(F)F)c3C)nc2cc1[C@@H]1CCN([C@@H]2COC[C@@H]2O)C[C@H]1F (single isomer, unassigned) [Ex-4.144] noted as 8.68

What the record says about Cc1c(Nc2ncc3cc(Cl)c([C@@H]4CCN(C5COC5)C[C@H]4F)cc3n2)cnn1CC(C)(C)O (single isomer, unassigned) [Ex-4.63] : LRRK2 pIC50 is 8.83

Given item CC1(N2CCC(n3ncc(Nc4ncc5cc(Cl)c(C6CC6(F)F)cc5n4)c3Cl)C(F)C2)COC1 (single isomer, unassigned) [Ex-3.2] , the value recorded as its LRRK2 pIC50 is 7.07

LRRK2 pIC50 reported for this molecule O[C@@H]1COCC1N1CC[C@H](c2cc3nc(Nc4cnn(C5CC5(F)F)c4Cl)ncc3cc2Cl)[C@@H](F)C1 (single isomer, unassigned) [Ex-4.125] : 8.16

Lab note: measured LRRK2 pIC50 of CN1CC[C@H](c2cc3nc(Nc4cnn(CC(C)(C)O)c4Cl)ncc3cc2Cl)[C@@H](F)C1 (single isomer, unassigned) [Ex-4.23] was 9.08

The measured LRRK2 pIC50 associated with OC1COCC1n1ncc(Nc2ncc3cc(Cl)c(C4CCN(C5COC5)CC4)cc3n2)c1Cl (single isomer, unassigned) [Ex-2.47] reads 9.11

For reference, reported LRRK2 pIC50 for Cc1cc2cnc(Nc3cnn(C4CC4)c3Cl)nc2cc1C1CCC(C)(O)CC1 (stereo not shown) [Ex-2.64] stands at 9.02

Record Cn1nc(C2CC2)cc1Nc1ncc2cc(Cl)c(C3CCN(C4COC4)CC3)cc2n1 [Ex-2.62] , field LRRK2 pIC50: 7.88

The value of LRRK2 pIC50 measured for the molecule Cc1cc2cnc(Nc3cnn(CC(C)(C)O)c3Cl)nc2cc1[C@H]1CCN(C2COC2)C[C@@H]1F (single isomer, unassigned) [Ex-4.83] turned out to be 9.14

Measured LRRK2 pIC50, Cc1cc2cnc(Nc3cc(C(C)(C)C)nn3C)nc2cc1C1CCN([C@]2(C)COC[C@@H]2O)CC1 (single isomer, unassigned) [Ex-5.14] : 9.02

For record Cc1c(Nc2ncc3cc(Cl)c(C4CCN(C[C@@H](O)c5ccc(F)cc5)CC4)cc3n2)cnn1C1CC1 [Ex-4.214] the listed LRRK2 pIC50 is 8.62

Query Cc1c(Nc2ncc3cc(Cl)c(C4CCN(C[C@H](O)c5cccc(F)c5)CC4)cc3n2)cnn1C1CC1 [Ex-4.195] yields LRRK2 pIC50 of 8.24

So for CN1CCC(F)(c2cc3nc(Nc4cnn(C5CC5)c4Cl)ncc3cc2Cl)CC1 [Ex-4.36] , the logged LRRK2 pIC50 turned out to be 8.29

// sample O[C@H]1COC[C@H]1N1CC[C@@H](c2cc3nc(Nc4cnn(C56CC(C5)C6)c4)ncc3cc2Cl)[C@H](F)C1 (single isomer, unassigned) [Ex-4.154] , its LRRK2 pIC50 was 9.06

Value of measured LRRK2 pIC50 for the entry Cc1nn(CC(C)(C)O)cc1Nc1ncc2cc(Cl)c(C3CCN(C4COC4)CC3)cc2n1 [Ex-2.61] : 8.66

LRRK2 pIC50 in this record for N#Cc1cc2cnc(Nc3cnn(C4CC4(F)F)c3Cl)nc2cc1[C@@H]1CCN(C2COC2)C[C@H]1F (single isomer, unassigned) [Ex-6.4] : 9.18
